Experiment: gradient 5% acetonitrile 3 min, to 50% in 2 min, to 85% in 15 min, held 3 min, 100 µL/min
Conditions: column: Zorbax Extend-C18 2.1 x 50 mm; eluents: water / acetonitrile, 0.1% formic acid
Please note: Satisfied applies when RP-LC retention time is 800 s or greater, and Not satisfied applies otherwise.

| Compound | Answer label |
| --- | --- |
| O=C(NC1CCN(c2cc(-c3ccc(Cl)cc3)[nH]n2)C1)c1ccc2c(c1)OCO2 (centres undefined) | Not satisfied |
| Cc1nn2c(CNS(=O)(=O)c3c(C)nn(C)c3C)c(C)nc2s1 | Not satisfied |
| O=C(CCc1csc(NC(=O)NC2CCCCC2)n1)NCCC1=CCCCC1 | Satisfied |
| CCc1nc(-c2csc(S(=O)(=O)N3CCCC(C(=O)Nc4ccc(C(C)C)cc4)C3)c2)no1 (centres undefined) | Satisfied |
| CC(C)c1nc(-n2cccc2)sc1C(=O)NCc1ccccc1 | Satisfied |
| COC(=O)c1ccc(CSc2nnc(N3CCN(c4ccc(F)cc4)CC3)s2)o1 | Satisfied |
| COc1cccc(S(=O)(=O)N2CCC3(CC2)C(OC)CN3c2cccc(F)c2)c1 (centres undefined) | Satisfied |
